The measurements presented in this section are drawn from ChEMBL document CHEMBL1150872.

Test system: Cladosporium cucumerinum
experiment_summary: Antifungal activity against Cladosporium cucumerinum at 0.4 umol after 2 days
Type: functional
Record Yes whenever inhibition zone (IZ) is at 10 mm or higher; record No when lower.

* C=C[C@@]1(C)CC[C@H](/C(C)=C/C[C@@H](OC(C)=O)C(C)(C)O)C[C@@H]1C(=C)C | No
* C=C[C@@]1(C)CC[C@H](C2=CC[C@H](C(C)(C)O)OC2)C[C@@H]1C(=C)C | Yes
* C=C[C@@]1(C)CC[C@H](/C(=C/C[C@@H](OC(C)=O)C(C)(C)O)COC(C)=O)C[C@@H]1C(=C)C | Yes

Exercise: Decide: inhibition zone (IZ) of C=C[C@@]1(C)CC[C@H](C2=CCC(O)C(C)(C)OC2)C[C@@H]1C(=C)C (stereo partly drawn) >= 10 mm?
Key: Yes

Exercise: Decide: inhibition zone (IZ) of C=C[C@@]1(C)CC[C@H](/C(C)=C/C[C@@H](O)C(C)(C)O)C[C@@H]1C(=C)C >= 10 mm?
Key: Yes

Exercise: Decide: inhibition zone (IZ) of C=C[C@@]1(C)CC[C@H](/C(C)=C/C=C/C(C)(C)O)C[C@@H]1C(=C)C >= 10 mm?
Key: No

Exercise: Decide: inhibition zone (IZ) of C=C[C@@]1(C)CC[C@H](/C(=C/C[C@@H](O)C(C)(C)O)COC(C)=O)C[C@@H]1C(=C)C >= 10 mm?
Key: Yes

Exercise: Decide: inhibition zone (IZ) of COC1=C(C)C(=O)c2cc(=O)n(C)c(C)c2C1=O >= 10 mm?
Key: Yes

* * *

Quick reference: LC50 at 48 h of the listed items.
experiment_summary: Toxicity in Artemia salina after 48 hrs
Type: organism-based
condition: in vivo
Unit µg/mL implied. Number only.

Take a look at these entries with their results.
• C=C[C@@]1(C)CC[C@H](/C(C)=C/C[C@H]2OC2(C)C)C[C@@H]1C(=C)C = 0.64
• C=C[C@@]1(C)CC[C@H](/C(C)=C/C[C@@H](OC(C)=O)C(C)(C)O)C[C@@H]1C(=C)C = 19.1
• C=C[C@@]1(C)CC[C@H](/C(C)=C/C=C/C(C)(C)O)C[C@@H]1C(=C)C [FUSCOL] = 4.18
• C=C[C@@]1(C)CC[C@H](C2=CC[C@H](C(C)(C)O)OC2)C[C@@H]1C(=C)C [LOBATRIENE] = 19.8
• C=C[C@@]1(C)CC[C@H](/C(C)=C/C[C@@H](O)C(C)(C)O)C[C@@H]1C(=C)C = 10.5

Exercise: // returns reported LC50 at 48 h for input C=C[C@@]1(C)CC[C@H](C2=CC[C@H](C(C)(C)OC(C)=O)OC2)C[C@@H]1C(=C)C
Key: 34

Exercise: // returns reported LC50 at 48 h for input C=C[C@@]1(C)CC[C@H](/C(=C/C[C@@H](OC(C)=O)C(C)(C)O)COC(C)=O)C[C@@H]1C(=C)C
Key: 60.4

Exercise: // returns reported LC50 at 48 h for input C=C[C@@]1(C)CC[C@H](/C(=C/C[C@@H](O)C(C)(C)O)COC(C)=O)C[C@@H]1C(=C)C
Key: 59

* * *

Quick reference: inhibition zone (IZ) of the listed items.
Tested on: Cladosporium cucumerinum
experiment_summary: Antifungal activity against Cladosporium cucumerinum at 0.4 umol after 2 days
Format: functional
Unit mm implied. Number only.

* C=C[C@@]1(C)CC[C@H](/C(C)=C/C[C@H]2OC2(C)C)C[C@@H]1C(=C)C | 0
* C=C[C@@]1(C)CC[C@H](C2=CC[C@H](C(C)(C)OC(C)=O)OC2)C[C@@H]1C(=C)C | 10

// next entry
Exercise: // returns reported inhibition zone (IZ) for input C=C[C@@]1(C)CC[C@H](C2=CC[C@H](C(C)(C)O)OC2=O)C[C@@H]1C(=C)C [LOBATRIENOLIDE]
Key: 13
